# test: Tested for in vitro antibacterial activity against DNA polymerase III
# Parameters: species or system Staphylococcus aureus
Please go through the items and note down their IC50.
Use µM as the unit, but write only the number.

Would you mind telling me what IC50 value was observed for CCc1cc(Nc2cc(Cl)nc(N)n2)ccc1C ?
53

Would you mind telling me what IC50 value was observed for Cc1ccc(Nc2cc(Cl)nc(N)n2)cc1Br ?
94

Would you mind telling me what IC50 value was observed for CC(C)(C)c1cccc(Nc2cc(Cl)nc(N)n2)c1 ?
89

Would you mind telling me what IC50 value was observed for Cc1ccc(Nc2cc(Cl)nc(N)n2)cc1I ?
51

Would you mind telling me what IC50 value was observed for Nc1nc(Cl)cc(Nc2ccc(Cl)c(Cl)c2)n1 ?
98

Would you mind telling me what IC50 value was observed for Nc1nc(Cl)cc(Nc2ccc3c(c2)CCC3)n1 ?
119

Would you mind telling me what IC50 value was observed for Cc1ccc(Nc2cc(Cl)nc(N)n2)cc1Cl ?
126

Would you mind telling me what IC50 value was observed for Cc1ccc(Nc2cc(Cl)nc(N)n2)cc1C ?
115

====

# Test system: Staphylococcus aureus
# test: In vitro percent inhibition against Pol III of Staphylococcus aureus at a concentration of 500 uM
Please go through the items and note down their inhibition.
Use % as the unit, but write only the number.

Would you mind telling me what inhibition value was observed for Cc1ccc(Nc2cc(S)nc(N)n2)cc1I ?
54

Would you mind telling me what inhibition value was observed for CCc1cc(Nc2cc(Oc3cccc(C)c3)nc(N)n2)ccc1C ?
88

Would you mind telling me what inhibition value was observed for Cc1ccc(Nc2cc(N(C)C)nc(N)n2)cc1C ?
27

Would you mind telling me what inhibition value was observed for Cc1cc(Nc2ccc(C)c(I)c2)nc(N)n1 ?
21

Would you mind telling me what inhibition value was observed for Cc1ccc(Nc2cc(Sc3ccccc3)nc(N)n2)cc1I ?
2

Would you mind telling me what inhibition value was observed for CCc1cc(Nc2cc(Oc3ccc(Br)cc3)nc(N)n2)ccc1C ?
97

Would you mind telling me what inhibition value was observed for CSc1cc(Nc2ccc(C)c(I)c2)nc(N)n1 ?
20

Would you mind telling me what inhibition value was observed for CCc1cc(Nc2cc(Oc3ccc(Cl)cc3)nc(N)n2)ccc1C ?
13

Would you mind telling me what inhibition value was observed for CCc1cc(Nc2cc(Oc3ccc(F)cc3)nc(N)n2)ccc1C ?
33

Taken from ChEMBL document CHEMBL1133915.
